# Tested on: Danio rerio larvae (5 dpf)
# protocol: difference in combined optomotor response to red, green and blue moving lines vs DMSO (percentage points); higher = stronger optomotor response than DMSO
# recordedConditions: 10 µM; exposure time 6 h
Where a name gives a salt, the structure may show the parent alone.
Classification by difference follows these ranges: bottom end (below -5), midrange (-5 to below 6), top end (6 or more)

- compound: "CC(C)(C)NC[C@H](O)COc1nsnc1N1CCOCC1 [Timolol (maleate)]"
  experimentalTarget: "Danio rerio larvae (5 dpf)"
  assignedCategory: "top end"
- compound: "CC(C)[C@H](N)C(=O)OCCOCn1cnc2c(=O)[nH]c(N)nc21 [L-Valacyclovir (hydrochloride)]"
  experimentalTarget: "Danio rerio larvae (5 dpf)"
  assignedCategory: "bottom end"
- compound: "C[C@@H]1C[C@H]2[C@@H]3CCC4=CC(=O)C=C[C@]4(C)[C@@]3(F)[C@@H](O)C[C@]2(C)[C@H]1C(=O)CO [Desoximetasone]"
  experimentalTarget: "Danio rerio larvae (5 dpf)"
  assignedCategory: "midrange"

Incoming: Given CC1(C)C[C@@H]1C(=O)N/C(=C\CCCCSC[C@H](N)C(=O)O)C(=O)O [Cilastatin] , name the class its difference places it in.
Outgoing: top end

Incoming: Note, next up: CO/N=C(\C(=O)N[C@@H]1C(=O)N2C(C(=O)O)=C(CSc3nc(=O)c(O)nn3C)CS[C@H]12)c1csc(N)n1 [Ceftriaxone (sodium salt hydrate)]
Outgoing: top end

Incoming: Queued: Cc1nc(Nc2ncc(C(=O)Nc3c(C)cccc3Cl)s2)cc(N2CCN(CCO)CC2)n1 [Dasatinib]
Outgoing: midrange

Incoming: Would you mind doing CO[C@H]1O[C@@H]2O[C@@]3(C)CC[C@H]4[C@H](C)CC[C@@H]([C@H]1C)[C@@]24OO3 [Artemether] as well?
Outgoing: top end

Incoming: Same thing, different compound: Clc1ccc(CCC(Cn2ccnc2)Sc2c(Cl)cccc2Cl)cc1 (stereo not given) [Butoconazole (nitrate)]
Outgoing: bottom end

Incoming: Try this compound next: COC(=O)C1=C(C)NC(C)=C(C(=O)OC)C1c1ccccc1[N+](=O)[O-] [Nifedipine]
Outgoing: top end

Incoming: What do you have for Fc1ccc([C@@H]2CCNC[C@H]2COc2ccc3c(c2)OCO3)cc1 [Paroxetine (hydrochloride)] ?
Outgoing: bottom end

Incoming: Also Cc1ccc(N(CC2=NCCN2)c2cccc(O)c2)cc1 [Phentolamine (mesylate)] ?
Outgoing: midrange

Incoming: Input CO[C@H]1C[C@@H]2CC[C@@H](C)[C@@](O)(O2)C(=O)C(=O)N2CCCC[C@H]2C(=O)O[C@H]([C@H](C)C[C@@H]2CC[C@@H](OC(=O)C(C)(CO)CO)[C@H](OC)C2)CC(=O)[C@H](C)/C=C(\C)[C@@H](O)[C@@H](OC)C(=O)[C@H](C)C[C@H](C)/C=C/C=C/C=C/1C [Temsirolimus]
Outgoing: midrange

Incoming: Queued: C#C[C@]1(O)CC[C@H]2[C@@H]3CCC4=CCCC[C@@H]4[C@H]3C(=C)C[C@@]21CC [Desogestrel]
Outgoing: bottom end

---

# Test system: Danio rerio larvae (5 dpf)
# protocol: difference in excitability vs DMSO (percentage points); higher = more excitable than DMSO
# recordedConditions: 10 µM; exposure time 6 h
Where a name gives a salt, the structure may show the parent alone.
Would you please tag the item 1 when its difference in excitability is 3 or above, and -1 when it is below?

Worked cases, answers included:
- compound: "CC(N)C12CC3CC(CC(C3)C1)C2 (stereo not given) [Rimantadine (hydrochloride)]"
  assignedCategory: 1
- compound: "Cc1ccc(/C(=C\\CN2CCCC2)c2cccc(/C=C/C(=O)O)n2)cc1 [Acrivastine]"
  assignedCategory: -1
- compound: "NS(=O)(=O)c1cc(C(=O)O)c(NCc2ccco2)cc1Cl [Furosemide]"
  assignedCategory: 1
- compound: "CC(C)C[C@H](NC(=O)[C@H](Cc1ccccc1)NC(=O)c1cnccn1)B(O)O [Bortezomib]"
  assignedCategory: -1

Incoming: Exam item: decide whether the reported difference in excitability for CC1=NN(c2ccc(C)c(C)c2)C(=O)/C1=N\Nc1cccc(-c2cccc(C(=O)O)c2)c1O [Eltrombopag] is at least 3.
Outgoing: 1

---

# System: Danio rerio larvae (5 dpf)
# protocol: difference in excitability vs DMSO (percentage points); higher = more excitable than DMSO
# recordedConditions: 10 µM; exposure time 6 h
Where a name gives a salt, the structure may show the parent alone.
Recorded difference in excitability by entry
Quick one: just the number, no unit, thanks!

Reference set (7 entries):
- molecule: "CO/N=C(\\C(=O)N[C@@H]1C(=O)N2C(C(=O)O)=C(COC(N)=O)CS[C@H]12)c1ccco1 [Cefuroxime (sodium salt)]"
  experimentalTarget: "Danio rerio larvae (5 dpf)"
  difference in excitability: 21.1
- molecule: "CC(C)(C)C(O)/C=C/c1ccc2c(c1)OCO2 (stereo not drawn)"
  experimentalTarget: "Danio rerio larvae (5 dpf)"
  difference in excitability: -5.22
- molecule: "Nc1cc(N2CCCCC2)nc(N)[n+]1[O-]"
  experimentalTarget: "Danio rerio larvae (5 dpf)"
  difference in excitability: 2.04
- molecule: "CNC(=O)c1cc(Oc2ccc(NC(=O)Nc3ccc(Cl)c(C(F)(F)F)c3)c(F)c2)ccn1"
  experimentalTarget: "Danio rerio larvae (5 dpf)"
  difference in excitability: 20.9
- molecule: "Cc1cc2c(s1)Nc1ccccc1N=C2N1CCN(C)CC1"
  experimentalTarget: "Danio rerio larvae (5 dpf)"
  difference in excitability: 26.1
- molecule: "Nc1ccn([C@@H]2CS[C@H](CO)O2)c(=O)n1"
  experimentalTarget: "Danio rerio larvae (5 dpf)"
  difference in excitability: 0.811
- molecule: "OCCOc1ccc(/C(=C(/CCCl)c2ccccc2)c2ccccc2)cc1"
  experimentalTarget: "Danio rerio larvae (5 dpf)"
  difference in excitability: 6.62

Incoming: For Danio rerio larvae (5 dpf), provide difference in excitability of CNCC(=O)OCc1cccnc1N(C)C(=O)OC(C)[n+]1cnn(C[C@](O)(c2cc(F)ccc2F)[C@@H](C)c2nc(-c3ccc(C#N)cc3)cs2)c1 (stereo partly drawn) [Isavuconazonium (sulfate)] please.
Outgoing: 28.4

---

# System: Danio rerio larvae (5 dpf)
# protocol: difference in habituation to acoustic stimuli vs DMSO (percentage points); higher = more habituation than DMSO
# recordedConditions: 10 µM; exposure time 6 h
Where a name gives a salt, the structure may show the parent alone.
Listing of recorded difference in habituation to acoustic stimuli by entry.
// response body must contain only the number

- compound: "CCC1=C(C)CN(C(=O)NCCc2ccc(S(=O)(=O)NC(=O)N[C@H]3CC[C@H](C)CC3)cc2)C1=O [Glimepiride]"
  testValue: 3.43
- compound: "C[C@H](CCC(=O)O)[C@H]1CC[C@H]2[C@@H]3CC[C@@H]4C[C@H](O)CC[C@]4(C)[C@H]3C[C@H](O)[C@]12C"
  testValue: 3.17
- compound: "C#C[C@]1(O)CC[C@H]2[C@@H]3CCc4cc(O)ccc4[C@H]3CC[C@@]21C"
  testValue: -11
- compound: "C#C[C@]1(O)CC[C@H]2[C@@H]3CCC4=CC(=O)CC[C@@H]4[C@H]3CC[C@@]21C"
  testValue: 2.6
- compound: "CN(C)C(=O)N[C@H]1CC[C@H](CCN2CCN(c3cccc(Cl)c3Cl)CC2)CC1 [Cariprazine (hydrochloride)]"
  testValue: -3.39

--- query ---
Incoming: Endpoint output: difference in habituation to acoustic stimuli of "CC[C@H]1OC(=O)[C@H](C)[C@@H](O[C@H]2C[C@@](C)(OC)[C@@H](O)[C@H](C)O2)[C@H](C)[C@@H](O[C@@H]2O[C@H](C)C[C@H](N(C)C)[C@H]2O)[C@](C)(OC)C[C@@H](C)C(=O)[C@H](C)[C@@H](O)[C@]1(C)O" . Value?
Outgoing: -1.55

---

# Tested on: Danio rerio larvae (5 dpf)
# protocol: difference in habituation to acoustic stimuli vs DMSO (percentage points); higher = more habituation than DMSO
# recordedConditions: 10 µM; exposure time 6 h
Where a name gives a salt, the structure may show the parent alone.
Rule: difference in habituation to acoustic stimuli under 0.8 gives Not met, otherwise Met.

- compound: "Cn1c(=O)c2c(ncn2C)n(C)c1=O [Caffeine]"
  assignedCategory: "Met"
- compound: "CC(=O)O[C@H]1Cc2ccccc2N(C(N)=O)c2ccccc21 [Eslicarbazepine Acetate]"
  assignedCategory: "Not met"
- compound: "C[C@@H]1C[C@H]2[C@@H]3CCC4=CC(=O)C=C[C@]4(C)[C@@]3(F)[C@@H](O)C[C@]2(C)[C@@]1(O)C(=O)CO [Dexamethasone]"
  assignedCategory: "Met"
- compound: "CC(=O)Oc1c(C)cc(OCC(O)CNC(C)C)c(C)c1C (configuration not stated) [Metipranolol (hydrochloride)]"
  assignedCategory: "Met"
- compound: "CO[C@H]1C[C@@H]2CC[C@@H](C)[C@@](O)(O2)C(=O)C(=O)N2CCCC[C@H]2C(=O)O[C@H]([C@H](C)C[C@@H]2CC[C@@H](O)[C@H](OC)C2)CC(=O)[C@H](C)/C=C(\\C)[C@@H](O)[C@@H](OC)C(=O)[C@H](C)C[C@H](C)/C=C/C=C/C=C/1C [Rapamycin]"
  assignedCategory: "Not met"

Incoming: Check if difference in habituation to acoustic stimuli >= 0.8 (inclusive). Item: Nc1nc(=O)c2nc(CNc3ccc(C(=O)N[C@@H](CCC(=O)O)C(=O)O)cc3)cnc2[nH]1 [Folic Acid]
Outgoing: Met

Incoming: Param item: CCOc1cc(CC(=O)N[C@@H](CC(C)C)c2ccccc2N2CCCCC2)ccc1C(=O)O [Repaglinide]
Outgoing: Not met
